Values were extracted from patent US7700602B2.

target or system: human BACE1 (Homo sapiens)
Sequence (P56817 46-501): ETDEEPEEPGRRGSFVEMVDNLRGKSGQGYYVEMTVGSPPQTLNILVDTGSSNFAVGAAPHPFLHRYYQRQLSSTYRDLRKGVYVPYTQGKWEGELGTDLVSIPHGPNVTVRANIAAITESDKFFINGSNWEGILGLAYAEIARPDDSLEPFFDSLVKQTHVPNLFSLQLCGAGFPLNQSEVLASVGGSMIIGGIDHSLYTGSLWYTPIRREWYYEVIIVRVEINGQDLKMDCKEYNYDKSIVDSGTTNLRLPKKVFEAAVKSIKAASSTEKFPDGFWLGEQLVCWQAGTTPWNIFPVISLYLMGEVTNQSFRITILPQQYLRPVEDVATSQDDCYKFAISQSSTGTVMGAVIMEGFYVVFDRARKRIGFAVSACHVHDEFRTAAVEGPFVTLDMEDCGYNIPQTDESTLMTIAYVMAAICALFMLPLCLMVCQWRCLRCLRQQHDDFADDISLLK
protocol description: Fluorescent kinetic assay, inhibition of BACE1 (WABC-6 peptide substrate);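 note: fluorescence monitored at 320 nm excitation and 420 nm emission every 40 s over 30 min, with the substrate cleavage rate taken from the linear slope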
Format: biochemical
condition: 10 nM enzyme, 25 μM substrate WABC-6, pH 4.5, room temperature; read-out: IC50 (μM) BACE1
test readout: IC50

compound	IC50
CCOc1ccc(C2(c3cccc(-c4cccnc4F)c3)N=C(N)N(C)C2=O)cc1OCC (stereo not shown) [Example 70]	0.01 to 0.1 µM
CN1C(=O)C(c2ccc(OC(F)(F)F)cc2)(c2cc(-c3cccnc3)ccc2F)N=C1N (stereo not shown) [Example 84]	0.11 to 1 µM
CN1C(=O)C(c2ccc(OC(F)F)cc2)(c2cccc(-c3cc(F)cnc3F)c2)N=C1N (stereo not shown) [Example 91]	0.01 to 0.1 µM
CCCCOc1cc(C2(c3cccc(-c4cccnc4)c3)N=C(N)N(C)C2=O)ccc1OC (stereo not shown) [Example 17]	0.01 to 0.1 µM

Exercise: Lookup: IC50 / human BACE1 (Homo sapiens) / CN1C(=O)C(c2ccc(OC(F)(F)F)cc2)(c2cccc(-c3ccc(F)nc3)c2)N=C1N (stereo not shown) [Example 65]
Solution: 0.11 to 1 µM

Exercise: Again, but for CCOc1ccc(C2(c3cccc(-c4cnccc4F)c3)N=C(N)N(C)C2=O)cc1OCC (stereo not shown) [Example 81]
Solution: 0.01 to 0.1 µM

Exercise: Again, but for NC1=NC(c2ccc(OC(F)(F)F)cc2)(c2ccc(F)c(-c3cccnc3F)c2)C(=O)N1CCF (stereo not shown) [Example 127]
Solution: 0.11 to 1 µM
